Every entry's value here was drawn from patent US9149038B2.

# Tested on: Key Broadleaf Weed and Crop Species
# METHOD_NOTES: Post-Emergent Test II: postemergent herbicidal activity, visual rating after 14 d (Table 7)
# Type: in vivo
# EXPERIMENTAL_PARAMETERS: post-emergence, 336 h, lambsquarters (Chenopodium album), 140 g ai/ha, read-out: Visual Growth Reduction (%) 14 Days After Application CHEAL
# Description: Herbicidal evaluations were made visually on a scale of 0 to 100 where 0 represents no activity and 100 represents complete plant death. […] A weighed amount, determined by the highest rate to be tested, of each test compound was placed in a 25 mL glass vial and was dissolved in 4 mL of a 97:3 v/v mixture of acetone and DMSO to obtain concentrated stock solutions. […]
// reported pest or weed control at 140 g/ha for each item listed
ENDPOINT_LABEL: pest or weed control at 140 g/ha

- COC(=O)c1nc(-c2c(F)cc3c(c2F)OC(F)(F)O3)cc(N)c1Cl: 95 to 100%
- Nc1c(F)c(-c2ccc(I)c3c2OC(F)(F)O3)nc(C(=O)O)c1Cl: 85 to 94%
- Nc1c(Cl)c(C(=O)O)nc(-c2ccc3c(c2F)OC(F)(F)O3)c1Cl: 0 to 29%
- COC(=O)c1nc(-c2ccc3c(c2C)OC(F)(F)O3)cc(N)c1Cl: 85 to 94%
- COC(=O)c1nc(-c2c(F)cc3c(c2F)OCO3)cc(N)c1Cl: 95 to 100%
- COC(=O)c1nc(-c2cc3c(cc2F)OC(F)(F)O3)cc(N)c1Cl: 95 to 100%
- COC(=O)c1nc(-c2cc3c(cc2F)OC(F)(F)O3)c(F)c(N)c1F: 0 to 29%
- Nc1cc(-c2ccc3c(c2F)OC(F)(F)O3)nc(C(=O)O)c1Cl: 85 to 94%
- C=Cc1c(C(=O)OC)nc(-c2cc3c(cc2F)OC(F)(F)O3)c(F)c1N: 0 to 29%
- COC(=O)c1nc(-c2cccc3c2OC(F)(F)O3)c(F)c(N)c1Cl: 95 to 100%
- Nc1c(F)c(-c2ccc(Br)c3c2OC(F)(F)O3)nc(C(=O)O)c1Cl: 95 to 100%
- Nc1c(F)c(-c2ccc3c(c2F)OC(F)(F)O3)nc(C(=O)O)c1Cl: 95 to 100%
- COc1c(C(=O)O)nc(-c2ccc3c(c2)OC(F)(F)O3)c(F)c1N: 45 to 59%
- COC(=O)c1nc(-c2cc3c(cc2F)OCO3)c(F)c(N)c1Cl: 60 to 74%
- Nc1cc(-c2cc3c(cc2F)OC(F)(F)O3)nc(C(=O)O)c1Cl: 85 to 94%
- COC(=O)c1nc(-c2cc3c(cc2F)OC(F)(F)O3)c(F)c(N)c1Cl: 85 to 94%
- COC(=O)c1nc(-c2ccc3c(c2F)OC(F)(F)O3)c(Cl)c(N)c1Cl: 0 to 29%
- C=Cc1c(C(=O)O)nc(-c2ccc3c(c2)OC(F)(F)O3)c(F)c1N: 0 to 29%

====

# System: Key Broadleaf Weed and Crop Species
# METHOD_NOTES: Post-Emergent Test II: postemergent herbicidal activity, visual rating after 14 d (Table 7)
# Assay type: in vivo
# EXPERIMENTAL_PARAMETERS: post-emergence, 336 h, lambsquarters (Chenopodium album), 140 g ai/ha, read-out: Visual Growth Reduction (%) 14 Days After Application CHEAL
// reported pest or weed control at 140 g/ha for each item listed
ENDPOINT_LABEL: pest or weed control at 140 g/ha

* Nc1c(F)c(-c2cccc3c2OC(F)(F)O3)nc(C(=O)O)c1Cl [Compound 74] | 95 to 100%
* COC(=O)c1nc(-c2ccc3c(c2)OC(F)(F)O3)c(C)c(N)c1Cl [Compound 49] | 85 to 94%
* Cc1c(-c2ccc3c(c2)OC(F)(F)O3)nc(C(=O)O)c(Cl)c1N [Compound 52] | 0 to 29%
* COc1c(N)nc(-c2ccc3c(c2)OC(F)(F)O3)nc1C(=O)O [Compound 63] | 0 to 29%
* COC(=O)c1nc(-c2ccc3c(c2F)OC(F)(F)O3)nc(N)c1Cl [Compound 58] | 95 to 100%

====

# Test system: Direct Seeded Rice and weed species
# METHOD_NOTES: Postemergence herbicidal activity in direct seeded rice, visual rating after 20-22 days and probit GR20/GR50/GR80/GR90 (Table 14)
# Type: in vivo
# EXPERIMENTAL_PARAMETERS: post-emergence, 504 h; ORYSJ (Oryza sativa, rice crop); 17.5 g ai/ha; postemergence; read-out: Visual Growth Reduction (%) 21 Days After Application ORYSJ
// reported pest or weed control at 17.5 g/ha for each item listed
ENDPOINT_LABEL: pest or weed control at 17.5 g/ha

* Nc1cc(-c2cc3c(cc2F)OC(F)(F)O3)nc(C(=O)O)c1Cl [Compound 42] | 85 to 94%
* COC(=O)c1nc(-c2ccc3c(c2F)OC(F)(F)O3)cc(N)c1Cl [Compound 37] | 0 to 29%
* Nc1c(F)c(-c2cc3c(cc2F)OC(F)(F)O3)nc(C(=O)O)c1Cl [Compound 13] | 45 to 59%
* Nc1c(F)c(-c2ccc3c(c2F)OC(F)(F)O3)nc(C(=O)O)c1Cl [Compound 11] | 30 to 44%
* COc1c(C(=O)O)nc(-c2ccc3c(c2)OC(F)(F)O3)c(F)c1N [Compound 25] | 85 to 94%
* COC(=O)c1nc(-c2ccc3c(c2F)OC(F)(F)O3)c(F)c(N)c1Cl [Compound 10] | 0 to 29%
* Nc1cc(-c2ccc3c(c2F)OC(F)(F)O3)nc(C(=O)O)c1Cl [Compound 41] | 85 to 94%
* COc1c(N)nc(-c2ccc3c(c2F)OC(F)(F)O3)nc1C(=O)O [Compound 66] | 60 to 74%

====

// reported pest or weed control at 140 g/ha for each item listed
# Test system: Key Broadleaf Weed and Crop Species
# METHOD_NOTES: Post-Emergent Test II: postemergent herbicidal activity, visual rating after 14 d (Table 7)
# Assay type: in vivo
# EXPERIMENTAL_PARAMETERS: post-emergence, 336 h, sunflower (Helianthus annuus), 140 g ai/ha, read-out: Visual Growth Reduction (%) 14 Days After Application HELAN
ENDPOINT_LABEL: pest or weed control at 140 g/ha

* Nc1nc(-c2ccc3c(c2F)OC(F)(F)O3)nc(C(=O)O)c1Cl [Compound 59] | 75 to 84%
* Nc1c(F)c(-c2cccc3c2OC(F)(F)O3)nc(C(=O)O)c1Cl [Compound 74] | 85 to 94%
* COC(=O)c1nc(-c2cc3c(cc2Cl)OC(F)(F)O3)c(F)c(N)c1Cl [Compound 12] | 0 to 29%
* COC(=O)c1nc(-c2cccc3c2OC(F)(F)O3)c(F)c(N)c1Cl [Compound 73] | 95 to 100%
* Nc1cc(-c2cc(F)c3c(c2)OC(F)(F)O3)nc(C(=O)O)c1Cl [Compound 44] | 0 to 29%

====

// reported pest or weed control at 70 g/ha for each item listed
# Tested on: Key Broadleaf Weed and Crop Species
# METHOD_NOTES: Post-Emergent Test II: postemergent herbicidal activity, visual rating after 14 d (Table 7)
# Format: in vivo
# EXPERIMENTAL_PARAMETERS: post-emergence, 336 h, lambsquarters (Chenopodium album), 70 g ai/ha, read-out: Visual Growth Reduction (%) 14 Days After Application CHEAL
ENDPOINT_LABEL: pest or weed control at 70 g/ha

- Nc1c(F)c(-c2ccc(I)c3c2OC(F)(F)O3)nc(C(=O)O)c1Cl: 85 to 94%
- COC(=O)c1nc(-c2ccc3c(c2)OC(C)(C)O3)nc(N)c1OC: 0 to 29%
- Nc1nc(-c2ccc3c(c2)OC(F)(F)O3)nc(C(=O)O)c1Cl: 60 to 74%
- COC(=O)c1nc(-c2ccc3c(c2C)OC(F)(F)O3)cc(N)c1Cl: 60 to 74%
- COC(=O)c1nc(-c2ccc3c(c2)OC(F)(F)O3)c(Cl)c(N)c1Cl: 0 to 29%

====

# Tested on: Key Broadleaf Weed and Crop Species
# METHOD_NOTES: Post-Emergent Test II: postemergent herbicidal activity, visual rating after 14 d (Table 7)
# Type: in vivo
# EXPERIMENTAL_PARAMETERS: post-emergence, 336 h, velvetleaf (Abutilon theophrasti), 140 g ai/ha, read-out: Visual Growth Reduction (%) 14 Days After Application ABUTH
// reported pest or weed control at 140 g/ha for each item listed
ENDPOINT_LABEL: pest or weed control at 140 g/ha

• COC(=O)c1nc(-c2ccc(Cl)c3c2OC(F)(F)O3)c(F)c(N)c1Cl [Compound 75] = 95 to 100%
• Nc1c(F)c(-c2ccc3c(c2)OC(F)(F)O3)nc(C(=O)O)c1Cl [Compound 7] = 95 to 100%
• COC(=O)c1nc(-c2ccc3c(c2)OC(C)(C)O3)nc(N)c1Cl [Compound 55] = 75 to 84%
• COC(=O)c1nc(-c2ccc3c(c2)OC(C)(C)O3)nc(N)c1OC [Compound 67] = 0 to 29%
• COC(=O)c1nc(-c2cc3c(cc2Cl)OC(F)(F)O3)c(F)c(N)c1Cl [Compound 12] = 60 to 74%
